Exercise: for every item that follows, state its recorded CC50.
experiment: in vitro; settings: African green monkey

Here is how some compounds turned out for CC50.
{"COMPOUND": "CCCCN1CCN(c2ccc([N+](=O)[O-])c(NC(c3ccccc3)c3ccccc3)c2)CC1", "CC50": "> 200 µM"}
{"COMPOUND": "CN1CCC(N(C)c2ccc([N+](=O)[O-])c(NC(c3ccccc3)c3ccccc3)c2)CC1", "CC50": "3.3 µM"}
{"COMPOUND": "O=[N+]([O-])c1ccc(N2CCN(Cc3ccco3)CC2)cc1NC(c1ccccc1)c1ccccc1", "CC50": "> 200 µM"}
{"COMPOUND": "CN1CCN(c2ccnc(NC(c3ccccc3)c3ccccc3)c2)CC1", "CC50": "70 µM"}
{"COMPOUND": "c1ccc(C(c2ccccc2)n2cnc3ccc(N4CCN5CCCCC5C4)cc32)cc1 (centres unmarked)", "CC50": "195 µM"}
{"COMPOUND": "O=[N+]([O-])c1ccc(N2CCN(Cc3cccnc3)CC2)cc1NC(c1ccccc1)c1ccccc1", "CC50": "> 200 µM"}

// batch mode: one CC50 value per listed entry
1. CN1CCN(c2ccc([N+](=O)[O-])c(NC(c3ccccc3)c3cccc(Cl)c3)c2)CC1 (centres unmarked)
2. CN1CCN(c2ccc([N+](=O)[O-])c(NC(c3ccccc3)c3ccccc3)c2)CC1=O

Reply text:
1: 21 µM; 2: > 100 µM

###

assay: in vitro; conditions: African green monkey
RECORDED ENDPOINT: log10(CC50) (log10 of the value in µM)
Kindly note that the scale is log10 and the underlying CC50 is in µM.

Here is how some compounds turned out for log10(CC50).
{"COMPOUND": "O=[N+]([O-])c1ccc(N2CCC(N3CCCCC3)CC2)cc1NC(c1ccccc1)c1ccccc1", "log10(CC50)": 0.88}
{"COMPOUND": "c1ccc(C(c2ccccc2)n2cnc3cnc(N4CCNCC4)cc32)cc1 [MBX 4215A, bis(2,2,2-trifluoroacetate)]", "log10(CC50)": 1.97}
{"COMPOUND": "c1ccc(C(c2ccccc2)n2cnc3ccc(-c4ccncc4)cc32)cc1", "log10(CC50)": 0.62}
{"COMPOUND": "c1ccc(C(c2ccccc2)n2cnc3ccc(-c4cccnc4)cc32)cc1", "log10(CC50)": 1.77}
{"COMPOUND": "CC(=O)Nc1ccc(N2CCN(C)CC2)cc1NC(c1ccccc1)c1ccccc1", "log10(CC50)": 2.00}

// batch mode: one log10(CC50) value per listed entry
1. Cc1ccccc1C(Nc1cc(N2CCN(C)CC2)ccc1[N+](=O)[O-])c1ccccc1 (stereo not shown)
2. CC(C)N1CCN(c2ccc([N+](=O)[O-])c(NC(c3ccccc3)c3ccccc3)c2)CC1
3. CN(C)CCNc1ccc2ncn(C(c3ccccc3)c3ccccc3)c2c1
4. CN(C)CCN(C)c1ccc([N+](=O)[O-])c(NC(c2ccccc2)c2ccccc2)c1

Reply text:
1. 1.18
2. 1.80
3. 2.02
4. 1.00

// batch mode: one log10(CC50) value per listed entry
1. CN(C)CCCNc1ccc([N+](=O)[O-])c(NC(c2ccccc2)c2ccccc2)c1
2. CN1CCN(c2ccc3nnn(C(c4ccccc4)c4ccccc4)c3c2)CC1 [MBX 3537A]
3. CN(C)CCNc1ccc([N+](=O)[O-])c(NC(c2ccccc2)c2ccccc2)c1
4. CN1CCN(c2ccc([N+](=O)[O-])c(NC(C)(C)c3ccccc3)c2)CC1

Reply text:
1.04
1.61
1.20
1.93

// batch mode: one log10(CC50) value per listed entry
1. CC1CN(c2ccc3ncn(C(c4ccccc4)c4ccccc4)c3c2)CCN1C (stereo not shown)
2. COc1cccc(C(Nc2cc(N3CCN(C)CC3)ccc2[N+](=O)[O-])c2ccccc2)c1 (stereo not shown)

Reply text:
1. 2.23
2. 1.41

// batch mode: one log10(CC50) value per listed entry
1. CN1CCN(c2ccc([N+](=O)[O-])c(NC(=O)c3ccccc3)c2)CC1
2. CN(C)C1CCN(c2ccc([N+](=O)[O-])c(NC(c3ccccc3)c3ccccc3)c2)CC1
3. CC(C)N(CCNc1ccc([N+](=O)[O-])c(NC(c2ccccc2)c2ccccc2)c1)C(C)C

Reply text:
1. 1.78
2. 0.89
3. 1.08

###

Exercise: for every item that follows, state its recorded CC50.
experiment: in vitro; conditions: African green monkey

Here is how some compounds turned out for CC50.
{"COMPOUND": "CN1CCN(c2ccc([N+](=O)[O-])c(NC(c3ccccc3)c3ccncc3)c2)CC1 (stereo not shown)", "OBSERVED VALUE": "45 µM"}
{"COMPOUND": "COCCN1CCN(c2ccc([N+](=O)[O-])c(NC(c3ccccc3)c3ccccc3)c2)CC1", "OBSERVED VALUE": "> 100 µM"}

// batch mode: one CC50 value per listed entry
1. CCCN1CCN(c2ccc([N+](=O)[O-])c(NC(c3ccccc3)c3ccccc3)c2)CC1
2. CCN(CC)c1ccc([N+](=O)[O-])c(NC(c2ccccc2)c2ccccc2)c1

Reply text:
1. > 200 µM
2. > 100 µM

###

experiment: in vitro; details: African green monkey
Classify: class 1 when CC50 is strictly less than 40 µM; class 0 when CC50 is not.

Examples with answers:
{"MOLECULE": "COc1ccccc1C(Nc1cc(N2CCN(C)CC2)ccc1[N+](=O)[O-])c1ccccc1 (stereo not drawn)", "ASSIGNED LABEL": "class 1"}
{"MOLECULE": "CN1CCN(c2cccc(NC(c3ccccc3)c3ccccc3)c2)CC1", "ASSIGNED LABEL": "class 1"}
{"MOLECULE": "CN1CCN(c2ccc(NS(C)(=O)=O)c(NC(c3ccccc3)c3ccccc3)c2)CC1 [MBX 3536A]", "ASSIGNED LABEL": "class 1"}
{"MOLECULE": "O=[N+]([O-])c1ccc(N2CCN(c3ccccc3)CC2)cc1NC(c1ccccc1)c1ccccc1", "ASSIGNED LABEL": "class 0"}
{"MOLECULE": "CN1CCN(c2ccc([N+](=O)[O-])c(NC3(c4ccccc4)CCCC3)c2)CC1", "ASSIGNED LABEL": "class 0"}
{"MOLECULE": "CN(C)CCCNc1ccc2ncn(C(c3ccccc3)c3ccccc3)c2c1", "ASSIGNED LABEL": "class 0"}
{"MOLECULE": "c1ccc(C(c2ccccc2)n2cnc3ccc(N4CCNCC4)nc32)cc1", "ASSIGNED LABEL": "class 0"}
{"MOLECULE": "O=[N+]([O-])c1ccc(N2CCN(CCCO)CC2)cc1NC(c1ccccc1)c1ccccc1", "ASSIGNED LABEL": "class 1"}

Inquiry: # strict comparison: is reported CC50 < 40 µM? input = Cc1cccc(C(Nc2cc(N3CCN(C)CC3)ccc2[N+](=O)[O-])c2ccccc2)c1 (stereo not drawn)
Reply text: class 0

Inquiry: # strict comparison: is reported CC50 < 40 µM? input = `CN1CCN(c2ccc([N+](=O)[O-])c(NC(c3ccccc3)c3ccccc3)c2)CC1`
Reply text: class 0

###

test: in vitro; conditions: African green monkey
Exercise: for every item that follows, state its recorded CC50.
Give bare numbers, in µM.

Here is how some molecules turned out for CC50.
{"MOLECULE": "CC(C)(C)N1CCCN(c2ccc([N+](=O)[O-])c(NC(c3ccccc3)c3ccccc3)c2)CC1", "OBSERVED VALUE": 23}
{"MOLECULE": "CN1CCCN(c2ccc([N+](=O)[O-])c(NC(c3ccccc3)c3ccccc3)c2)CC1", "OBSERVED VALUE": 7.6}
{"MOLECULE": "O=[N+]([O-])c1ccc(N2CCN(CCO)CC2)cc1NC(c1ccccc1)c1ccccc1", "OBSERVED VALUE": 21}

Query molecule follows.
Inquiry: Would you mind telling me what CC50 value was observed for COc1ccc(C(Nc2cc(N3CCN(C)CC3)ccc2[N+](=O)[O-])c2ccccc2)cc1 (centres unmarked) ?
Reply text: 33

###

Exercise: for every item that follows, state its recorded CC50.
test: in vitro; details: African green monkey

{"COMPOUND": "O=[N+]([O-])c1ccc(N2CCN(CCc3ccccc3)CC2)cc1NC(c1ccccc1)c1ccccc1 [MBX 3623]", "CC50": "> 100 µM"}
{"COMPOUND": "O=[N+]([O-])c1ccc(N2CCN(C3CCC3)CC2)cc1NC(c1ccccc1)c1ccccc1 [MBX 3589]", "CC50": "> 200 µM"}

// batch mode: one CC50 value per listed entry
1. O=[N+]([O-])c1ccc(N2CCCCC2)cc1NC(c1ccccc1)c1ccccc1 [MBX 3702]
2. O=[N+]([O-])c1ccc(N2CCN(Cc3ccccn3)CC2)cc1NC(c1ccccc1)c1ccccc1 [MBX 3558]
3. c1ccc(C(c2ccccc2)n2cnc3ccc(N4CCN5CCCC5C4)cc32)cc1 (stereo not shown) [MBX 4210]
4. CCOC(=O)CN1CCN(c2ccc([N+](=O)[O-])c(NC(c3ccccc3)c3ccccc3)c2)CC1 [MBX 3947]
5. O=[N+]([O-])c1ccc(N2CCN(Cc3ccncc3)CC2)cc1NC(c1ccccc1)c1ccccc1 [MBX 3562]
6. Cc1ccc(C(Nc2cc(N3CCN(C)CC3)ccc2[N+](=O)[O-])c2ccccc2)cc1 (stereo not shown) [MBX 3687]
7. O=[N+]([O-])c1ccc(N2CCN(Cc3ccccc3)CC2)cc1NC(c1ccccc1)c1ccccc1 [MBX 3569]
8. CN1CCN(c2ccc3[nH]c(=O)n(C(c4ccccc4)c4ccccc4)c3c2)CC1 [MBX 3526]

Reply text:
> 100 µM
> 200 µM
> 200 µM
> 100 µM
> 200 µM
16 µM
> 200 µM
26 µM

// batch mode: one CC50 value per listed entry
1. O=[N+]([O-])c1ccc(N2CCN(Cc3ccsc3)CC2)cc1NC(c1ccccc1)c1ccccc1 [MBX 3577]
2. CN1CCN(c2ccc([N+](=O)[O-])c(NC(c3ccccc3)c3cccnc3)c2)CC1 (stereo not shown) [MBX 3648]
3. O=[N+]([O-])c1ccc(N2CCNCC2)cc1NC(c1ccccc1)c1ccccc1 [MBX 3556]
4. O=[N+]([O-])c1ccc(-c2cccnc2)cc1NC(c1ccccc1)c1ccccc1 [MBX 4279]
5. CCN1CCN(c2ccc([N+](=O)[O-])c(NC(c3ccccc3)c3ccccc3)c2)CC1 [MBX 3557]
6. CCOC(=O)CC(Nc1cc(N2CCN(C)CC2)ccc1[N+](=O)[O-])c1ccccc1 (stereo not shown) [MBX 4329]

Reply text:
> 200 µM
17 µM
5.2 µM
49 µM
20 µM
45 µM
